Catalogue of compounds with associated solubility
// note: answer is a bare numeric in mM

INSERT INTO measurements (compound, experimental_readout, value) VALUES
  ('CCOC(=O)C(CC(=O)O)=C(c1ccccc1)c1ccccc1', 'solubility', 6.44),
  ('CC(C)SS(=O)C(C)C (centres undefined)', 'solubility', 150),
  ('CCOC(OCC)C(C)=O', 'solubility', 622),
  ('CCSS(=O)CC (centres undefined)', 'solubility', 796),
  ('Cc1ccc(NO)cc1', 'solubility', 162);

Query: Entry CC(C)OC(=O)C(C)(C)O has what solubility?
Reply: 1030

----------
condition description: 25 °C
just bin them by solubility: low band = under 3 mM, middle band = from 3 mM up to 40 mM, high band = 40 mM and over

INSERT INTO measurements (compound, class) VALUES
  ('CC1(C)OC(=O)c2cc([N+](=O)[O-])ccc21', 'low band'),
  ('c1ccc(-c2cccnc2)nc1', 'high band'),
  ('CCCCCCC(C/C=C\CCCCCCCC(=O)O)OS(=O)(=O)O (stereo not drawn)', 'high band'),
  ('CCOC(=O)CCc1ccccc1', 'low band');

Query: Which of the defined bands does the recorded solubility of Cn1c(=O)c2[nH]c(Cl)nc2n(C)c1=O sit within?
Reply: middle band

Query: Which of the defined bands does the recorded solubility of CC(C)CCCCCO sit within?
Reply: middle band

Query: Which of the defined bands does the recorded solubility of CCCCCCCOC(=O)c1cccnc1 sit within?
Reply: low band

Query: Which of the defined bands does the recorded solubility of O=C(O)CCC(=O)c1cccc2ccccc12 sit within?
Reply: low band

Query: Which of the defined bands does the recorded solubility of CCCOC(=O)CCOC sit within?
Reply: high band

----------
condition description: 20 °C
just bin them by solubility: low (below 3 mM), medium (3 mM to below 40 mM), high (40 mM or more)

INSERT INTO assay_data (compound, class) VALUES
  ('CC(=O)Nc1ccc(F)cc1C', 'high'),
  ('O=C(O)C(Br)=C(Br)Br', 'high'),
  ('O=C(CCCCC(=O)NCCO)NCCO', 'high');

Query: Which of the defined bands does the recorded solubility of Cc1csc(=S)n1CC(=O)O sit within?
Reply: medium

Query: Which of the defined bands does the recorded solubility of S=C=NCCc1ccccc1 sit within?
Reply: low

Query: Which of the defined bands does the recorded solubility of COc1cc(C(C)=O)ccc1O sit within?
Reply: medium

Query: Which of the defined bands does the recorded solubility of COCc1ccccc1 sit within?
Reply: medium

Query: Which of the defined bands does the recorded solubility of NC[C@H](O)C(=O)O sit within?
Reply: high

Query: Which of the defined bands does the recorded solubility of ClCCOCOCCCl sit within?
Reply: high

----------
condition description: 25 °C
experimental readout: solubility (mM)
// note: answer is a bare numeric in mM

The following compounds have reported results that may help.
INSERT INTO assay_data (compound, value) VALUES
  ('CC(NCCC#N)C(=O)O (centres undefined)', 985),
  ('CCCCN(C(N)=O)c1ccccc1', 50.5),
  ('NC(=O)NCC(=O)NCC(=O)O', 126),
  ('Cc1cc(Cl)cc(C)c1O', 21.1),
  ('O=C(NCCO)c1cc(O)ccc1O', 286);

Query: Entry COCCCl has what solubility?
Reply: 846

Query: Entry O=C1OCc2ccc(Br)cc21 has what solubility?
Reply: 2.25

----------
condition description: 23 °C
Is solubility at least 2 mM? Then 1.0. If not, 0.0.

Study these solved cases before continuing.
INSERT INTO results (compound, class) VALUES
  ('N#CCC(=O)Nc1ccccc1', 0.0),
  ('NC(=O)N/N=C/[C@H](O)[C@@H](O)[C@@H](O)[C@H](O)CO', 1.0),
  ('CCC(C(=O)O)C(CC)C(=O)O (configuration not stated)', 1.0);

Query: Dear colleague, could you confirm whether O=C(O)c1ccccc1C1OC(=O)c2ccccc21 (configuration not stated) has solubility at or above 2 mM?
Reply: 0.0

----------
condition description: 30 °C
experimental readout: solubility (mM)
// note: answer is a bare numeric in mM

The following molecules have reported results that may help.
INSERT INTO measurements (molecule, experimental_readout, value) VALUES
  ('O=S(=O)(CCCl)CCS(=O)(=O)CCCl', 'solubility', 35.6),
  ('CCc1cccc(C)n1', 'solubility', 150);

Query: Entry CCCCn1cnc2c1c(=O)n(C)c(=O)n2C has what solubility?
Reply: 15.6

Query: Entry CCCn1c(=O)c2c(ncn2C)n(C)c1=O has what solubility?
Reply: 61.9

Query: Entry O=C(O)c1ccccc1C(=O)c1ccc(Br)cc1 has what solubility?
Reply: 0.983

----------
Catalogue of compounds with associated solubility

INSERT INTO measurements (compound, value) VALUES
  ('O=C(Cc1ccccc1)c1ccc(O)cc1', '31.6 mM'),
  ('CCN(CC)CN(CC)CC', '632 mM'),
  ('O=C(c1ccccc1)N(O)c1cccc2ccccc12', '0.494 mM');

Query: Entry Oc1ccccc1Oc1ccccc1 has what solubility?
Reply: 0.591 mM

Query: Entry Oc1ccc(Sc2ccccc2)cc1 has what solubility?
Reply: 1.68 mM

----------
condition description: 27 °C
Catalogue of compounds with associated solubility

The following compounds have reported results that may help.
INSERT INTO results (smiles_data, value) VALUES
  ('CCC(C)(C)NC(N)=O', '96.8 mM'),
  ('O=C(O)CCC(=O)OC[C@@H](NC(=O)C(Cl)Cl)[C@H](O)c1ccc([N+](=O)[O-])cc1', '8.27 mM'),
  ('c1ccc2c(c1)-c1cccc3cc4c(ccc5ccccc54)c-2c13', '3.31e-06 mM');

Then this compound:
Query: Entry Cc1c2c(cc3c1ccc1ccccc13)CCCC2 has what solubility?
Reply: 0.000179 mM

----------
condition description: 24 °C
Catalogue of compounds with associated solubility
// note: answer is a bare numeric in mM

INSERT INTO assay_data (smiles_data, value) VALUES
  ('O=NC1=C(NO)CCC1', 10.1),
  ('c1ccc(CNCCNCc2ccccc2)cc1', 16.3),
  ('O=Cc1cccc(C(=O)O)c1O', 3.61),
  ('Cc1ccc(S(N)(=O)=O)cc1N', 12.1),
  ('c1ccc(CCNCc2ccccc2)cc1', 1.89);

Then this compound:
Query: Entry O=C(O)c1ccc(C(=O)O)c(Br)c1 has what solubility?
Reply: 7.35

----------
condition description: 23 °C
experimental readout: solubility
Answer shape: numeric part, then the unit.

The following molecules have reported results that may help.
INSERT INTO assay_data (molecule, value) VALUES
  ('CCCc1nc(N)c(CC)c(CCC)n1', '3.07 mM'),
  ('O=S(=O)(c1ccccc1O)c1ccccc1O', '0.48 mM'),
  ('CCCC(N)C(=O)O (racemic)', '805 mM'),
  ('CC(C)C(=O)Oc1ccc([N+](=O)[O-])cc1', '0.11 mM'),
  ('Nc1cc([N+](=O)[O-])ccc1O', '6 mM');

Then this molecule:
Query: Entry NC(=O)C[C@H](NC(N)=O)C(=O)O has what solubility?
Reply: 308 mM

----------
condition description: 25 °C
experimental readout: log10 solubility (log10 of the value in mM)
Please interpret these as log10 of solubility where solubility is in mM.

INSERT INTO assay_data (compound, experimental_readout, value) VALUES
  ('CC(=O)Nc1ccc(C)cc1', 'log10 solubility', 0.91),
  ('CCCCCOC(=O)C(C)O (stereo unspecified)', 'log10 solubility', 1.80),
  ('CCN1CC(=O)N=C1N', 'log10 solubility', 2.84),
  ('NP(N)(=O)c1ccccc1', 'log10 solubility', 1.85);

Query: Entry Cc1cc(Cl)cc(Cl)c1O has what log10 solubility?
Reply: 0.96

----------
condition description: 22 °C
experimental readout: log10 of solubility (log10 of the value in mM)
Please interpret these as log10 of solubility where solubility is in mM.

The following compounds have reported results that may help.
INSERT INTO measurements (smiles_data, value) VALUES
  ('O=C1CCCCCCCCN1', 1.93),
  ('NNc1cccc(S(=O)(=O)O)c1', 2.17),
  ('CC(=O)OCCS', 1.50);

Query: Entry CCOP(=O)(Cc1ccc(-c2nc3ccccc3s2)cc1)OCC has what log10 of solubility?
Reply: -1.00

Query: Entry O=C1CCCCCCCCCN1 has what log10 of solubility?
Reply: 1.11

Query: Entry Cc1ccc(N)cc1C has what log10 of solubility?
Reply: 1.50

Query: Entry COCOC(=O)c1ccccc1O has what log10 of solubility?
Reply: 0.70

Query: Entry O=C1CCCCCCCN1 has what log10 of solubility?
Reply: 3.63

Query: Entry O=S1(=O)NCc2ccccc21 has what log10 of solubility?
Reply: 1.48
